From: ChEMBL document CHEMBL5303573

- experimentSummary: The drug is tested on Clostridium ramosum strain: DSM1402 for biotransformation. The drug concentrations were measured before and after a 12-h incubation by liquid-chromatography-coupled mass spectrometry (LC–MS)
- assaySetup: thomasclavelia ramosa, 2 µM
measurementName: Bacterial Biotransformation

Record excerpt, results attached:
- compound: "CCN(C(C)=O)c1cccc(-c2ccnc3c(C#N)cnn23)c1 [ZALEPLON]"
  obsValue: "Compound NOT metabolized"
- compound: "N[C@@H](Cc1ccc(N(CCCl)CCCl)cc1)C(=O)O"
  obsValue: "Compound metabolized"
- compound: "CN1CCc2c(c3ccccc3n2Cc2ccccc2)C1.CN1CCc2c(c3ccccc3n2Cc2ccccc2)C1.O=S(=O)(O)c1cccc2c(S(=O)(=O)O)cccc12"
  obsValue: "Compound NOT metabolized"
- compound: "Br.NC(=O)C(c1ccccc1)(c1ccccc1)[C@@H]1CCN(CCc2ccc3c(c2)CCO3)C1 [DARIFENACIN HYDROBROMIDE]"
  obsValue: "Compound NOT metabolized"
- compound: "COc1ccccc1OCCNCC(O)COc1cccc2[nH]c3ccccc3c12 (stereo unspecified) [CARVEDILOL]"
  obsValue: "Compound metabolized"

Could you now look at the following compound, please?
Lookup result for NC(CO)(CO)CO.O=C(c1ccccc1)c1ccc2n1CCC2C(=O)O (stereo unspecified) [KETOROLAC TROMETHAMINE] ; measured Bacterial Biotransformation: Compound NOT metabolized

====

- experimentSummary: The drug is tested on Blautia hansenii strain: DSM20583 for biotransformation. The drug concentrations were measured before and after a 12-h incubation by liquid-chromatography-coupled mass spectrometry (LC–MS)
- assaySetup: 2 µM
measurementName: Bacterial Biotransformation

Record excerpt, results attached:
- compound: "CC(C)(C#N)c1cc(Cn2cncn2)cc(C(C)(C)C#N)c1"
  Bacterial Biotransformation: "Compound metabolized"
- compound: "CN(C)CCOC(c1ccc(Cl)cc1)c1ccccn1.O=C(O)/C=C\\C(=O)O (stereo not drawn) [CARBINOXAMINE MALEATE]"
  Bacterial Biotransformation: "Compound NOT metabolized"
- compound: "CC(=O)CCCCn1c(=O)c2c(ncn2C)n(C)c1=O"
  Bacterial Biotransformation: "Compound NOT metabolized"
- compound: "CN1CCN(CC/C=C2/c3ccccc3Sc3ccc(S(=O)(=O)N(C)C)cc32)CC1"
  Bacterial Biotransformation: "Compound metabolized"
- compound: "N[C@@H](Cc1ccc(N(CCCl)CCCl)cc1)C(=O)O"
  Bacterial Biotransformation: "Compound metabolized"

Lookup result for `CN1CCc2cccc3c2[C@H]1Cc1ccc(O)c(O)c1-3` ; measured Bacterial Biotransformation: Compound NOT metabolized

Lookup result for CC(O)(CS(=O)(=O)c1ccc(F)cc1)C(=O)Nc1ccc(C#N)c(C(F)(F)F)c1 (stereo not drawn) [BICALUTAMIDE] ; measured Bacterial Biotransformation: Compound NOT metabolized

====

- experimentSummary: The drug is tested on Bacteroides fragilis strain: HMW610 for biotransformation. The drug concentrations were measured before and after a 12-h incubation by liquid-chromatography-coupled mass spectrometry (LC–MS)
- assaySetup: 2 µM
measurementName: Bacterial Biotransformation

Record excerpt, results attached:
- compound: "CC[C@@]1(O)C(=O)OCc2c1cc1n(c2=O)Cc2cc3c(CN(C)C)c(O)ccc3nc2-1"
  Bacterial Biotransformation: "Compound NOT metabolized"
- compound: "CC(N)C12CC3CC(CC(C3)C1)C2 (centres undefined)"
  Bacterial Biotransformation: "Compound NOT metabolized"
- compound: "Fc1ccc([C@@H]2CCNC[C@H]2COc2ccc3c(c2)OCO3)cc1"
  Bacterial Biotransformation: "Compound NOT metabolized"
- compound: "CC(=O)OCC(=O)[C@@]12N=C(C)O[C@@H]1C[C@H]1[C@@H]3CCC4=CC(=O)C=C[C@]4(C)[C@H]3[C@@H](O)C[C@@]12C"
  Bacterial Biotransformation: "Compound metabolized"

Lookup result for CC(C)c1c(CN(C)C(C)Cc2ccccc2)n(C)n(-c2ccccc2)c1=O (centres undefined) ; measured Bacterial Biotransformation: Compound metabolized

Lookup result for `CCCCC1=NC2(CCCC2)C(=O)N1Cc1ccc(-c2ccccc2-c2nnn[nH]2)cc1` ; measured Bacterial Biotransformation: Compound metabolized

Lookup result for CNCCC(Oc1ccc(C(F)(F)F)cc1)c1ccccc1 (centres undefined) ; measured Bacterial Biotransformation: Compound metabolized

Lookup result for NS(=O)(=O)c1cc2c(cc1Cl)N=C(CSCc1ccccc1)NS2(=O)=O [BENZTHIAZIDE] ; measured Bacterial Biotransformation: Compound NOT metabolized

Lookup result for CC(NC(C)(C)C)C(=O)c1cccc(Cl)c1 (centres undefined) ; measured Bacterial Biotransformation: Compound NOT metabolized

Lookup result for CN1CCN2c3ccccc3Cc3ccccc3C2C1 (centres undefined) ; measured Bacterial Biotransformation: Compound NOT metabolized

Lookup result for `COc1cc2c(c(OC)c1OC)-c1ccc(OC)c(=O)cc1[C@@H](NC(C)=O)CC2` ; measured Bacterial Biotransformation: Compound metabolized

Lookup result for `C=CCN1CC[C@]23c4c5ccc(O)c4O[C@H]2C(=O)CC[C@@]3(O)[C@H]1C5` ; measured Bacterial Biotransformation: Compound metabolized

Lookup result for `N#Cc1ccc2c(c1)N(CCCN1CCC(O)CC1)c1ccccc1S2` ; measured Bacterial Biotransformation: Compound metabolized

Lookup result for `Cc1cc2c(s1)Nc1ccccc1N=C2N1CCN(C)CC1` ; measured Bacterial Biotransformation: Compound metabolized

====

- assaySetup: bacteroides fragilis, 12 h, 2 µM
- Description: The drug is tested on Bacteroides fragilis strain: NCTC 9343 for biotransformation. The drug concentrations were measured before and after a 12-h incubation by liquid-chromatography-coupled mass spectrometry (LC–MS)
measurementName: Bacterial Biotransformation

- molecule: "CCOc1ccc2nc(S(N)(=O)=O)sc2c1 [ETHOXZOLAMIDE]"
  measurementName: "Bacterial Biotransformation"
  obsValue: "Compound metabolized"
- molecule: "CC(C(=O)O)c1ccc2c(c1)Cc1cccnc1O2 (stereo not given)"
  measurementName: "Bacterial Biotransformation"
  obsValue: "Compound metabolized"
- molecule: "CN1CCN2c3ccccc3Cc3ccccc3C2C1 (stereo not given)"
  measurementName: "Bacterial Biotransformation"
  obsValue: "Compound NOT metabolized"
- molecule: "CCN(CC)CCOCCOC(=O)C1(c2ccccc2)CCCC1.O=C(O)CC(O)(CC(=O)O)C(=O)O [CARBETAPENTANE CITRATE]"
  measurementName: "Bacterial Biotransformation"
  obsValue: "Compound metabolized"
- molecule: "CS(=O)(=O)O.OC(CCN1CCCCC1)(c1ccccc1)c1ccccc1 [PRIDINOL METHANESULFONATE]"
  measurementName: "Bacterial Biotransformation"
  obsValue: "Compound NOT metabolized"
- molecule: "CNS(=O)(=O)Cc1ccc2[nH]cc(CCN(C)C)c2c1.O=C(O)CCC(=O)O [SUMATRIPTAN SUCCINATE]"
  measurementName: "Bacterial Biotransformation"
  obsValue: "Compound NOT metabolized"

Lookup result for CN1CCC(=C2c3ccccc3CC(=O)c3sccc32)CC1.O=C(O)/C=C/C(=O)O [KETOTIFEN FUMARATE] ; measured Bacterial Biotransformation: Compound NOT metabolized

Lookup result for `CN[C@H]1CC[C@@H](c2ccc(Cl)c(Cl)c2)c2ccccc21` ; measured Bacterial Biotransformation: Compound NOT metabolized

====

- experimentSummary: The drug is tested on Parabacteroides merdae strain: ATCC43184 for biotransformation. The drug concentrations were measured before and after a 12-h incubation by liquid-chromatography-coupled mass spectrometry (LC–MS)
- assaySetup: 2 µM
measurementName: Bacterial Biotransformation

Record excerpt, results attached:
- molecule: "CCC(COC(=O)c1cc(OC)c(OC)c(OC)c1)(c1ccccc1)N(C)C.O=C(O)/C=C\\C(=O)O (stereo unspecified)"
  measurementName: "Bacterial Biotransformation"
  obsValue: "Compound metabolized"
- molecule: "COc1c(C)c2c(c(O)c1C/C=C(\\C)CCC(=O)OCCN1CCOCC1)C(=O)OC2 [MYCOPHENOLATE MOFETIL]"
  measurementName: "Bacterial Biotransformation"
  obsValue: "Compound metabolized"
- molecule: "Cc1cn([C@H]2C[C@H](N=[N+]=[N-])[C@@H](CO)O2)c(=O)[nH]c1=O"
  measurementName: "Bacterial Biotransformation"
  obsValue: "Compound NOT metabolized"
- molecule: "CCOc1ccc2nc(S(N)(=O)=O)sc2c1 [ETHOXZOLAMIDE]"
  measurementName: "Bacterial Biotransformation"
  obsValue: "Compound metabolized"

Could you now look at the following molecule, please?
Lookup result for `CCN(CC)C(=O)/C(C#N)=C/c1cc(O)c(O)c([N+](=O)[O-])c1` ; measured Bacterial Biotransformation: Compound metabolized

====

- experimentSummary: The drug is tested on Blautia luti strain: DSM14534 for biotransformation. The drug concentrations were measured before and after a 12-h incubation by liquid-chromatography-coupled mass spectrometry (LC–MS)
- Format: ADME
- Design: dose 2 uM, timepoint 0 vs 12 hours
- assaySetup: 2 µM
measurementName: Bacterial Biotransformation

Record excerpt, results attached:
- compound: "CCN(CC)CCOCCOC(=O)C1(c2ccccc2)CCCC1.O=C(O)CC(O)(CC(=O)O)C(=O)O [CARBETAPENTANE CITRATE]"
  Bacterial Biotransformation: "Compound metabolized"
- compound: "CC(C)NCC(O)COc1ccc(COCCOC(C)C)cc1.CC(C)NCC(O)COc1ccc(COCCOC(C)C)cc1.O=C(O)/C=C/C(=O)O (stereo unspecified) [BISOPROLOL FUMARATE]"
  Bacterial Biotransformation: "Compound NOT metabolized"
- compound: "CN(C)CC(c1ccc(O)cc1)C1(O)CCCCC1.O=C(O)CCC(=O)O (stereo unspecified) [DESVENLAFAXINE SUCCINATE]"
  Bacterial Biotransformation: "Compound NOT metabolized"
- compound: "CC1=C(CC(=O)O)c2cc(F)ccc2/C1=C\\c1ccc([S+](C)[O-])cc1 (stereo unspecified)"
  Bacterial Biotransformation: "Compound NOT metabolized"
- compound: "O=P(O)(O)O.c1ccc(CN(CC2=NCCN2)c2ccccc2)cc1 [ANTAZOLINE PHOSPHATE]"
  Bacterial Biotransformation: "Compound NOT metabolized"
- compound: "COc1ccc2[nH]c([S+]([O-])Cc3ncc(C)c(OC)c3C)nc2c1 (stereo unspecified) [OMEPRAZOLE]"
  Bacterial Biotransformation: "Compound metabolized"

Lookup result for O=C(O)c1cc(/N=N/c2ccc(S(=O)(=O)Nc3ccccn3)cc2)ccc1O [SULFASALAZINE] ; measured Bacterial Biotransformation: Compound metabolized

Lookup result for CS(=O)(=O)O.O.O.O.O=C1Cc2cc(CCN3CCN(c4nsc5ccccc45)CC3)c(Cl)cc2N1 [ZIPRASIDONE MESYLATE] ; measured Bacterial Biotransformation: Compound NOT metabolized

Lookup result for COc1cc2nc(N3CCN(C(=O)C4COc5ccccc5O4)CC3)nc(N)c2cc1OC.CS(=O)(=O)O (stereo unspecified) [DOXAZOSIN MESYLATE] ; measured Bacterial Biotransformation: Compound NOT metabolized

Lookup result for CN[C@H]1CC[C@@H](c2ccc(Cl)c(Cl)c2)c2ccccc21 [SERTRALINE] ; measured Bacterial Biotransformation: Compound NOT metabolized

Lookup result for CC1Cc2ccccc2N1NC(=O)c1ccc(Cl)c(S(N)(=O)=O)c1 (stereo unspecified) [INDAPAMIDE] ; measured Bacterial Biotransformation: Compound NOT metabolized

Lookup result for CCCC(=O)Nc1ccc(OCC(O)CNC(C)C)c(C(C)=O)c1 (stereo unspecified) [ACEBUTOLOL] ; measured Bacterial Biotransformation: Compound NOT metabolized

Lookup result for Nc1nnc(-c2cccc(Cl)c2Cl)c(N)n1 [LAMOTRIGINE] ; measured Bacterial Biotransformation: Compound NOT metabolized

Lookup result for C=CC[C@@H]1/C=C(\C)C[C@H](C)C[C@H](OC)[C@H]2O[C@@](O)(C(=O)C(=O)N3CCCC[C@H]3C(=O)O[C@H](/C(C)=C/[C@@H]3CC[C@@H](O)[C@H](OC)C3)[C@H](C)[C@@H](O)CC1=O)[C@H](C)C[C@@H]2OC.O [TACROLIMUS] ; measured Bacterial Biotransformation: Compound metabolized

Lookup result for `COc1ccc(/C=C/C(=O)Nc2ccccc2C(=O)O)cc1OC` ; measured Bacterial Biotransformation: Compound NOT metabolized

Lookup result for OC(CCN1CCCCC1)(c1ccccc1)C1CC2C=CC1C2 (stereo unspecified) [BIPERIDEN] ; measured Bacterial Biotransformation: Compound NOT metabolized
